target-or-system: human JAK1 kinase domain (JH1) (Homo sapiens)
Construct: recombinantly generated catalytic kinase (also known as JH1) domain of human JAK1, JAK2, JAK3 and TYK2
Sequence (P23458 875-1153 limits assumed): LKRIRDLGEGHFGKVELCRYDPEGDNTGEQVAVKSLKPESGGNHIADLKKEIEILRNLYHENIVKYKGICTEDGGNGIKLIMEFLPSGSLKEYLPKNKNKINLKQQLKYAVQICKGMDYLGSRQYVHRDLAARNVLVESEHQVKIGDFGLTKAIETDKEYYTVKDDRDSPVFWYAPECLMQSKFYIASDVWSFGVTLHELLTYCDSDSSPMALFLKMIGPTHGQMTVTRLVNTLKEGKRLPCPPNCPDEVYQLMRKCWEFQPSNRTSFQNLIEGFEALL
assay-notes: JH1 biochemical assay for JAK1 (ADP-Glo kinase assay, recombinant JH1 catalytic domain, JAK3-342 peptide, 35 μM ATP)
protocol-conditions: JAK1 JH1, ADP-Glo
pIC50: −log10 of the molar value. Where a name gives a salt, the structure may show the parent alone.
# Lookup of reported pIC50 keyed by entry
assay-readout: pIC50

INSERT INTO results (compound, reading) VALUES
  ('C[C@@H]1CN(c2nc(-c3cnn(C4CC4)c3)cc3ncsc23)C(=O)[C@]1(C#N)C1CC1 [Example 357]', '> 7.00'),
  ('C[C@@H]1CN(c2nc(-c3ccc4cnn(C)c4c3)cn3nccc23)C(=O)[C@]1(C#N)C1CC1 [Example 259, trifluoroacetate]', '> 7.00'),
  ('CO[C@H]1C[C@H](n2cc(-c3cc4ncsc4c(N4C[C@@H](C)[C@@](C#N)(C5CC5)C4=O)n3)cn2)C1 [Example 355]', '> 7.00'),
  ('C[C@@H]1CN(c2nc(-c3ccc(C(F)(F)F)nc3)cn3nccc23)C(=O)[C@]1(C#N)C1CC1 [Example 238, trifluoroacetate]', '< 5.00');

###

Reported IC50 by item:
target-or-system: human TYK2 kinase domain (JH1) (Homo sapiens)
Construct: recombinantly generated catalytic kinase (also known as JH1) domain of human JAK1, JAK2, JAK3 and TYK2
Sequence (P29597 897-1176 limits assumed): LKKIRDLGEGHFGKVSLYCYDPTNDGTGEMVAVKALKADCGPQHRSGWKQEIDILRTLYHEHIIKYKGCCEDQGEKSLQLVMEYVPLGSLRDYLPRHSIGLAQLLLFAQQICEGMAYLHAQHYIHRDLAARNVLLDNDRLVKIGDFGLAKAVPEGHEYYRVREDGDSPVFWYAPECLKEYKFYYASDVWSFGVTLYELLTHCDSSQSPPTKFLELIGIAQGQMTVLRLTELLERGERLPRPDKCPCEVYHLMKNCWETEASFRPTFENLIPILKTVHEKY
assay-notes: JH1 biochemical assay for TYK2 (ADP-Glo kinase assay, recombinant JH1 catalytic domain, JAK3-974 peptide, 10 μM ATP)
protocol-conditions: JH1 kinase domain, ADP-Glo
Structures can show the parent of a compound that is named as a salt.
assay-readout: IC50

INSERT INTO assay_data (compound, reading) VALUES
  ('C[C@@H]1CN(c2nc(-c3ncccc3F)cn3nccc23)C(=O)[C@]1(C#N)C1CC1', '50 to 100 nM'),
  ('C[C@@H]1CN(c2ccnn3cc(-c4cnn(C5CCOC5)c4)cc23)C(=O)[C@]1(C#N)C1CC1 (stereo partly shown)', '< 5 nM'),
  ('Cn1cc(-c2cc3c(N4CC[C@@](C#N)(C5CC5)C4=O)ccnn3c2)c(F)n1', '5 to 20 nM'),
  ('C[C@@H]1CN(c2ccnc3[nH]c(-c4cnn(C)c4)cc23)C(=O)[C@]1(C#N)C1CC1', '< 5 nM'),
  ('COc1cc(-c2cc3c(N4CC[C@@](C#N)(C5CC5)C4=O)ccnn3c2)ccn1', '5 to 20 nM'),
  ('C[C@@H]1CN(c2ccnn3cc(-c4ccc(F)nc4)cc23)C(=O)[C@]1(C#N)C1CC1', '5 to 20 nM'),
  ('COc1cc(-c2cc3c(N4CC[C@](C#N)(C5CC5)C4=O)ccnc3[nH]2)ccn1', '> 100 nM'),
  ('C[C@@H]1CN(c2nc(-c3cnn(C45CC(C4)C5)c3)cn3ncc(F)c23)C(=O)[C@]1(C#N)C1CC1', '< 5 nM'),
  ('Cc1cnn2cc(-c3cnn(C)c3)nc(N3C[C@@H](C)[C@@](C#N)(C4CC4)C3=O)c12', '50 to 100 nM'),
  ('C[C@@H]1CN(c2nc(-c3cnn(C)c3)cn3ncc(Cl)c23)C(=O)[C@]1(C#N)C1CC1', '5 to 20 nM'),
  ('C[C@@H]1CN(c2ccnn3cc(-c4cnccc4C(F)(F)F)cc23)C(=O)[C@]1(C#N)C1CC1', '> 100 nM'),
  ('C[C@@H]1CN(c2ccnn3cc(-c4cncc(Cl)c4)cc23)C(=O)[C@]1(C#N)C1CC1', '20 to 50 nM'),
  ('C[C@@H]1CN(c2nc(-c3cnn(C(F)F)c3)cn3ncc(F)c23)C(=O)[C@]1(C#N)C1CC1', '< 5 nM'),
  ('C[C@@H]1CN(c2nc(-c3ccc(C#N)nc3)cn3nccc23)C(=O)[C@]1(C#N)C1CC1', '5 to 20 nM'),
  ('COc1cncc(-c2cc3c(N4C[C@@H](C)[C@@](C#N)(C5CC5)C4=O)ccnn3c2)n1 [Example 126, trifluoroacetate]', '20 to 50 nM'),
  ('C[C@@H]1CN(c2ccnn3cc(-c4cnn(C)c4)cc23)C(=O)[C@]1(C#N)C1COC1', '> 100 nM'),
  ('Cc1ccc(-c2cc3c(N4C[C@@H](C)[C@@](C#N)(C5CC5)C4=O)ccnn3c2)cn1', '5 to 20 nM'),
  ('Cc1nc(C)c(-c2cn3nccc3c(N3C[C@@H](C)[C@@](C#N)(C4CC4)C3=O)n2)s1', '5 to 20 nM'),
  ('CC[C@@H]1C[C@](C#N)(C2CC2)C(=O)N1c1ccnn2cc(-c3cnn(C)c3)cc12', '> 100 nM');
